// viability at 28.5 h, 10 µM lookup, one value per entry
# experimentalProtocol: in vitro
# conditionLabel: human, hela cells, % viability
Number only, in %; omit the unit.

Solved cases below.
* NC(=S)N/N=C/c1c[nH]nc1-c1ccccc1 | 96.5
* COc1ccc(-n2ncc3c2CC(C)(C)CC3NC(=O)C2CC2)cc1 (stereo not shown) | 91.1

Given the compound "COc1ccc(F)c(CNCCNC(=O)OC(C)(C)C)c1" , write its reported viability at 28.5 h, 10 µM.
93.9

Given the compound "CCN(CC)C(=O)CN1CCN(c2nccnc2OCc2cccnc2)CC1" , write its reported viability at 28.5 h, 10 µM.
100

---

# experimentalProtocol: in vitro
# conditionLabel: human, hela cells, % viability
Values of viability at 28.5 h, 10 µM strictly less than 90% map to 1.0, and values of at least 90% map to 0.0.

Worked cases, answers included:
* CCC1(CC)Cc2ccccc2-c2nc(NN)n(Cc3ccccc3)c(=O)c21 | 0.0
* Cc1cccc(-c2nc(CN(C)CC(=O)NC(C)C)no2)c1 | 0.0

Identify whether the molecule "COc1ccc(C2=NN(c3ccc([N+](=O)[O-])cc3)C(=O)/C2=C/NCc2ccc3c(c2)OCO3)cc1" records viability at 28.5 h, 10 µM below 90%.
1.0

Identify whether the molecule "Cc1ccc2oc(-c3cc(NC(=O)Cn4cnc5c(=O)n(C)c(=O)n(C)c54)ccc3O)nc2c1" records viability at 28.5 h, 10 µM below 90%.
0.0

---

# experimentalProtocol: in vitro
# conditionLabel: human, hela cells, % viability
Values of viability at 28.5 h, 10 µM strictly less than 90% map to t, and values of at least 90% map to f.

Worked cases, answers included:
- COc1ccc2cc(COC(=O)c3ccc([S+](C)[O-])cc3)c(Cl)nc2c1 (stereo not drawn): f
- CCC(C)(C)NC(=NC#N)Nc1cccnc1: t
- O=C(NCCc1ccncc1)c1cccs1: f
- COC(=O)[C@@H]1Cc2ncn(C(C)C)c2CN1C(=O)c1ccc(F)cc1: t
- CCC(CO)Nc1cncc(-c2cccc(N)c2)n1 (stereo not drawn): f

Identify whether the compound "CC1CCN(C(=O)[C@@H]2CN(C)C[C@]23CCc2ccccc2C3=O)CC1" records viability at 28.5 h, 10 µM below 90%.
f

Identify whether the compound "Cc1cccc(NC(=O)COc2ccccc2CNc2ccc(Br)cc2)c1" records viability at 28.5 h, 10 µM below 90%.
f

Identify whether the compound "O=C(c1ccc(OC(F)(F)F)cc1)N1CCN(c2nnnn2-c2ccccc2)CC1" records viability at 28.5 h, 10 µM below 90%.
f

Identify whether the compound "O=C(/C=C/c1ccc(Cl)cc1Cl)Nc1sc2c(c1C(=O)NCc1cccnc1)CCCC2" records viability at 28.5 h, 10 µM below 90%.
f

Identify whether the compound "Nc1ncc(-c2ccc(C(F)(F)F)cc2)nc1-c1ccc(C(=O)N2CCOCC2)cc1" records viability at 28.5 h, 10 µM below 90%.
f

Identify whether the compound COCC1OC(n2cc(C)c(=O)[nH]c2=O)CC1O (stereo not drawn) records viability at 28.5 h, 10 µM below 90%.
f

Identify whether the compound Cc1ccc(NC(=O)C2CC(=O)Nc3nc4ccccc4n32)cc1 (stereo not drawn) records viability at 28.5 h, 10 µM below 90%.
f

Identify whether the compound "O=C1CCN(Cc2ccccc2)CCN1C(=O)C1CCCC1" records viability at 28.5 h, 10 µM below 90%.
t

---

# experimentalProtocol: in vitro
# conditionLabel: human, hela cells, % viability
Values of viability at 28.5 h, 10 µM strictly less than 90% map to Met, and values of at least 90% map to Not met.

Worked cases, answers included:
• CN1CCC(N2CC[C@@H]3[C@H]2C(=O)NC[C@H](CCC(=O)NCc2ccccc2)N3C)CC1 = Not met
• Cn1nnnc1SCC(=O)Nc1cc(F)ccc1F = Met
• Cc1nccn1CCCC(=O)NCC1(c2ccccc2F)CCCC1 = Not met
• COc1ccc(C2N(CCC(=O)O)CCOC23CCN(C(=O)c2ccc4ccccc4c2)CC3)cc1 (centres unmarked) = Not met

Identify whether the molecule CC(C)C1c2cccn2CCN1S(=O)(=O)c1ccc2[nH]c(=O)[nH]c(=O)c2c1 (centres unmarked) records viability at 28.5 h, 10 µM below 90%.
Not met

Identify whether the molecule "Cc1cc2occ(CC(=O)NCc3cc(C4CC4)[nH]n3)c2cc1C" records viability at 28.5 h, 10 µM below 90%.
Met

Identify whether the molecule O=C(O)C1CCCN1C(=O)Nc1ccccc1Cl (centres unmarked) records viability at 28.5 h, 10 µM below 90%.
Not met

---

# experimentalProtocol: in vitro
# conditionLabel: human, hela cells, % viability, bulk resorufin, single well
endpoint: viability at 28.5 h, 10 µM (%)
Number only, in %; omit the unit.

* O=C(Nc1ccc(OC(F)(F)F)cc1)N1CCC2(CC1)OCCO2 | 91.7

Given the molecule "COC(=O)c1cccc(NC(=O)N2CCC3(CC2)OCCO3)c1" , write its reported viability at 28.5 h, 10 µM.
91.1

Given the molecule "CSc1cc(C)c2c(c1)COC1(CCN(C(=O)Nc3cccs3)CC1)O2" , write its reported viability at 28.5 h, 10 µM.
90.6

Given the molecule "C=CCN1C(=O)/C(=N\Nc2ccc(S(=O)(=O)O)cc2)C(=O)NC1=S" , write its reported viability at 28.5 h, 10 µM.
92

Given the molecule "CC(C)C(=O)N1CCC2(CC1)OCc1cc(Cl)ccc1O2" , write its reported viability at 28.5 h, 10 µM.
89.6

---

# experimentalProtocol: in vitro
# conditionLabel: human, hela cells, % viability
Values of viability at 28.5 h, 10 µM strictly less than 90% map to Condition met, and values of at least 90% map to Condition not met.

Worked cases, answers included:
- CC(=O)N/C(=C/c1ccc([N+](=O)[O-])cc1)C(=O)Nc1cccc(C(=O)O)c1: Condition not met
- O=C(c1ccc2c(c1)OCCO2)N1CCC2(CCN(C(=O)c3cc(F)c(F)cc3F)C2)C1 (centres unmarked): Condition not met
- CC(NC(=O)c1ncoc1-c1ccccc1Cl)c1ccccn1 (centres unmarked): Condition not met
- COC(=O)CCC(=O)Nc1snnc1-c1ccc(Cl)cc1: Condition not met
- O=C(CNC(=O)OCc1ccccc1)NCC(CCCN1CCN(c2ccccc2)CC1)(c1ccccc1)c1ccccc1: Condition not met

Alright, here's another compound for you.
Identify whether the compound "Cc1csc2c(N3CCC(NCCCc4cnn(C)c4)CC3)ncnc12" records viability at 28.5 h, 10 µM below 90%.
Condition not met

---

# experimentalProtocol: in vitro
# conditionLabel: human, hela cells, % viability
// viability at 28.5 h, 10 µM lookup, one value per entry

Solved cases below.
* NC(CC(=O)O)c1ccc(F)c(Oc2ccccc2)c1 (centres unmarked) | 101%
* COc1cc(-c2ccc(OC3CCNCC3)cc2)cc(OC)c1OC | 99%
* COc1ccc(-c2nc3cc(C(C)C)ccc3o2)cc1NC(=O)Cc1ccc(Cl)cc1 | 96.9%
* Cc1cc2n(n1)[C@@H](C(F)F)C[C@@H](C1CCCN(C(=O)C3CC3)C1)N2 (some centres unmarked) | 98.7%
* COc1ccccc1NC(=O)c1cn(Cc2ccc(N)cc2)cn1 | 99.5%

Given the molecule "COc1ccc(O)c(C(=O)c2cnn(-c3ccc(Cl)c(C(=O)O)c3)c2)c1" , write its reported viability at 28.5 h, 10 µM.
90.2%

Given the molecule "CC(=O)Nc1cccc(-c2cc(N3CCN(CC(=O)N(C)c4ccccc4)CC3)ncn2)c1" , write its reported viability at 28.5 h, 10 µM.
99.7%

Given the molecule CCOc1cc(NC2CCN(C(=O)C3CCCC(C)(C)C3)CC2)ncn1 (centres unmarked) , write its reported viability at 28.5 h, 10 µM.
80.9%

---

# experimentalProtocol: in vitro
# conditionLabel: human, hela cells, % viability
endpoint: viability at 28.5 h, 10 µM (%)
Number only, in %; omit the unit.

• OCCn1c(-c2ccc(Br)cc2)cn2c3ccccc3nc12 = 95.2

Turning to the following molecule.
Given the molecule "COc1ccc(CNC(=O)NC(=O)C2CCN(CCCc3ccc4c(c3)OCO4)CC2)c(OC)c1" , write its reported viability at 28.5 h, 10 µM.
100

---

# Test system: C. trachomatis L2/434/Bu expressing GFP (CTL2-GFP)
# Construct: L2/434/Bu GFP intracellular growth in HeLa cells
# experimentalProtocol: microbe, parasite or virus in culture
# Set-up: C. trachomatis total inclusion area by high-content imaging, normalised to DMSO
# conditionLabel: Chlamydia trachomatis, HeLa, 28.5 h; total inclusion area; read-out: % of control remaining
Values of activity at 10 µM strictly less than 30% map to satisfied, and values of at least 30% map to not satisfied.

Worked cases, answers included:
• COc1ccc(C=CC(=O)Nc2sc3c(c2C(=O)O)CCCC3)cc1OC = satisfied
• CCc1cc(Br)ccc1S(=O)(=O)NC(CC)COC (stereo not shown) = not satisfied
• O=C(O)c1cn(C2CC2)c2cc(N3CCN(C(=O)Cc4ccsc4)CC3)c(F)cc2c1=O = satisfied

Identify whether the molecule "Cc1noc(NS(=O)(=O)c2ccc(NC(=O)/C=C/c3ccc(C(C)C)cc3)cc2)c1C" records activity at 10 µM below 30%.
satisfied

Identify whether the molecule "CCCc1cc(C(=O)N2CCN(c3nccc(OC)n3)CC2)[nH]n1" records activity at 10 µM below 30%.
not satisfied

Identify whether the molecule "CNC(=S)N1CCN(c2nsc3ccccc23)CC1" records activity at 10 µM below 30%.
satisfied

Identify whether the molecule "CCc1nnc(NS(=O)(=O)c2ccc(NC(=S)Nc3ccc(F)cc3)cc2)s1" records activity at 10 µM below 30%.
satisfied

Identify whether the molecule "Cc1cc(NS(=O)(=O)c2ccc(NC(=S)NC(=O)C(C)(C)C)cc2)no1" records activity at 10 µM below 30%.
not satisfied
